Test system: A498
methodSummary: NCI tumour cell line growth inhibition, 48 h
The source made the active and inactive calls. No stated cut-off is given here; in the data, active = GI50 up to about 1.1 µM and inactive = higher.
experimentalEndpoint: GI50

{"compound": "O=C(CC1(O)C(=O)Nc2c(Cl)cc(Cl)cc21)c1cccc2ccccc12 (centres undefined)", "experimentalEndpoint": "GI50", "resultValue": "21.5 µM (inactive)"}
{"compound": "CCOC(=O)C1Cc2[nH]c3ccccc3c2C(C)C1C (centres undefined)", "experimentalEndpoint": "GI50", "resultValue": "17.4 µM (inactive)"}
{"compound": "CCOC(=O)c1cc(Br)c(-c2cc(C)co2)[nH]1", "experimentalEndpoint": "GI50", "resultValue": "> 100 µM (inactive)"}
{"compound": "COC(=O)C(CCCCCCCC(C(=O)OC)C1=Nc2nnc(N)n2C1=O)C1=Nc2nnc(N)n2C1=O (centres undefined)", "experimentalEndpoint": "GI50", "resultValue": "> 100 µM (inactive)"}
{"compound": "O=C(COc1ccc(OCC(=O)N2C(=O)CN(c3ccccc3)C2=S)cc1)N1C(=O)CN(c2ccccc2)C1=S", "experimentalEndpoint": "GI50", "resultValue": "> 56.5 µM (inactive)"}
{"compound": "CC(=O)OC1=C(c2ccccc2)S(=O)(=O)c2ccccc21", "experimentalEndpoint": "GI50", "resultValue": "> 100 µM (inactive)"}
{"compound": "COc1cc2ccc(=O)oc2cc1O [SCOPOLETIN]", "experimentalEndpoint": "GI50", "resultValue": "80.4 µM (inactive)"}
{"compound": "O=C(O)c1ccccc1Cc1ccco1", "experimentalEndpoint": "GI50", "resultValue": "> 100 µM (inactive)"}
{"compound": "[N-]=[N+]=CC(=O)CCC(=O)N(c1ccccc1)c1ccccc1", "experimentalEndpoint": "GI50", "resultValue": "> 10 µM (inactive)"}

Entry source: ChEMBL document CHEMBL1201862
